Value source: patent US20200164085A1

Biological target: T1, human CD74 (human, UniProt P04233 1-296)
T1 sequence (looked up): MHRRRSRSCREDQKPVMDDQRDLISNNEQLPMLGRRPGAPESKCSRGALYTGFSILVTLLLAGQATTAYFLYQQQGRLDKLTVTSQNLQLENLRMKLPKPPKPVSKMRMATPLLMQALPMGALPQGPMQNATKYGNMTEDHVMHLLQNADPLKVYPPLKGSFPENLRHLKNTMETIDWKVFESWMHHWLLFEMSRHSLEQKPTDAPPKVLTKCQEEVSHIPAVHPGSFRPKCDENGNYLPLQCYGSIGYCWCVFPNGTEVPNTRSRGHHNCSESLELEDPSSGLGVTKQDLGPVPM
Experiment: cell-based or functional assay

{"binder": "ADC 12-4 (anti-hCD74 (LL1) conjugated to Linker 1-4) (antibody, human IgG1, kappa, V domains shown, position 121 is para-azido phenylalanine (pAzF), conjugated to dexamethasone drug-linker 1-4) VH: QVQLQQSGSELKKPGASVKVSCKASGYTFTNYGVNWIKQAPGQGLQWMGWINPNTGEPTFDDDFKGRFAFSLDTSVSTAYLQISSLKADDTAVYFCSRSRGKNEAWFAYWGQGSLVTVSS VL: DIQLTQSPLSLPVTLGQPASISCRSSQSLVHRNGNTYLHWFQQRPGQSPRLLIYTVSNRFSGVPDRFSGSGSGTDFTLKISRVEAEDVGVYFCSQSSHVPPTFGAGTRLEIKR", "Emax, GILZ mRNA, HUT-78 cells": 3.95}
{"binder": "ADC 12-7 (anti-hCD74 (LL1) conjugated to Linker 4-3) (antibody, human IgG1, kappa, V domains shown, position 121 is para-azido phenylalanine (pAzF), conjugated to dexamethasone drug-linker 4-3) VH: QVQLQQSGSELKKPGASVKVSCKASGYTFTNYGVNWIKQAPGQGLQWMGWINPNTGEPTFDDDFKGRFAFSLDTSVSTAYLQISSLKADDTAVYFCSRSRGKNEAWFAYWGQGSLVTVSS VL: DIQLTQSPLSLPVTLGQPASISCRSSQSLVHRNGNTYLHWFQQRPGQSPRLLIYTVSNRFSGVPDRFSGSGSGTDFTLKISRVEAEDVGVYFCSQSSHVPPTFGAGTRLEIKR", "Emax, GILZ mRNA, HUT-78 cells": 1.93}
